system: KM12; assay: NCI tumour cell line growth inhibition, 48 h
Active and inactive are the calls of the source. No stated cut-off is given here; in the data, active = GI50 up to about 1.1 µM and inactive = higher.
API: response.call in class 1 for active, class 0 for inactive

Solved entries:
molecule | experimental system | assigned label
COC1=C(OC)C(=O)C(Cc2c(-c3ccccc3)nc3sc(Cl)cn23)=C(C)C1=O | KM12 | class 0
O=S(=O)(O)c1cc(O)c(/N=N/c2ccc3ccccc3c2O)c2ccccc12 | KM12 | class 0
O=S1(=O)N=C(SCc2c[nH]c3ccccc23)N(c2ccccc2)c2ccncc21 | KM12 | class 0
C=CCOc1ccc(N)c([N+](=O)[O-])c1 | KM12 | class 0
CC(=O)C1C(=O)C(=O)N(CCN2C(=O)C(=O)C(C(C)=O)C2=O)C1=O (stereo not drawn) | KM12 | class 0

How was COC(=O)/C(C#N)=C1\CCC(Nc2cccc(C(F)(F)F)c2)N1C (stereo not drawn) classified in this test?
class 0

How was "O=C1OC(c2cccc(C(F)(F)F)c2)(c2cccc(C(F)(F)F)c2)c2ccc3ccccc3c21" classified in this test?
class 0

How was "O=C(C/C=C/c1ccccc1)c1ccccc1" classified in this test?
class 0

How was COc1ccccc1CC(C)N (stereo not drawn) classified in this test?
class 0
